Every entry's value here was drawn from patent US8426429B2.

The entries below are paired with their reported % Inhibition (FS).
- TARGET UNDER TEST: β-secretase (BACE) (Homo sapiens, UniProt P56817)
- Construct: purchased Panvera
- Sequence (P56817 46-501): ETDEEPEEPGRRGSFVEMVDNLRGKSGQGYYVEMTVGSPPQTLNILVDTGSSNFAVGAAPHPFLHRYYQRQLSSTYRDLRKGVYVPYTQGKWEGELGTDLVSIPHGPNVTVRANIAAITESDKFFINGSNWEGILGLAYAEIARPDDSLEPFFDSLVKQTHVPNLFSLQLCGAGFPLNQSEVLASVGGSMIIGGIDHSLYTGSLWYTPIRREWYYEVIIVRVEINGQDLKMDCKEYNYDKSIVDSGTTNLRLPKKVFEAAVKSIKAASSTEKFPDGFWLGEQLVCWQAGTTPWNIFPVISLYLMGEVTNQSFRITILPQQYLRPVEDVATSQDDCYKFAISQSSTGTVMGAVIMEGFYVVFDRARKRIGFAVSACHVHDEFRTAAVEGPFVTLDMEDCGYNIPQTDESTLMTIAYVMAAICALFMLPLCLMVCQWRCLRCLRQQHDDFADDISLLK
- MEASUREMENT PROTOCOL: BACE FS1 % Inhibition Assay
- Assay type: biochemical
- PARTICULARS: 1 μM test compound

Below are worked cases with known answers.
Query CCCC=Cc1ccc2c(c1)CN(CCNC(=O)CCC)C(N)=N2 yields % Inhibition (FS) of <30%

# % Inhibition (FS) (molecule: NC1=Nc2ccc(Oc3ccccc3)cc2CN1Cc1cccc(C(=O)NCCc2ccc(S(N)(=O)=O)cc2)c1 ) is <30%

Lab book: % Inhibition (FS) of CC(C)CCC(=O)N1CCCC(N2Cc3cc(Oc4ccccc4)ccc3N=C2N)C1 (stereo not shown) noted as 31%

Continuing:
Per the records, this molecule ( CC(C)C(CC(=O)N(C(C)C)C1CCCCC1)N1Cc2cc(Oc3ccccc3)ccc2N=C1N (stereo not shown) ) has % Inhibition (FS) equal to <30%
